pIC50: −log10 of the molar value.
Consider the following pIC50 values measured on purified solubilized version of Type VII tmAC (sol.AC7) (Homo sapiens).
Sequence (P51828 279-406 limits assumed): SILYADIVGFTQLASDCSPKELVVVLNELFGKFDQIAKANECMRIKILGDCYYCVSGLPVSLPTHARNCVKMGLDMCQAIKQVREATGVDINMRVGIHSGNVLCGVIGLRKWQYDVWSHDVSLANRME
Sequence (P51828 879-1023 limits assumed): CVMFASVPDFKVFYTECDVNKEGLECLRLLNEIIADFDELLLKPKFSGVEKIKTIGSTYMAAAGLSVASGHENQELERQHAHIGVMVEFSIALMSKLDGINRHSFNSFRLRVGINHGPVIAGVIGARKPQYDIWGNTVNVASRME

Entry CCCCOc1ccc(C2=N/C(=C\C(Br)=C\c3ccccc3)C(=O)O2)cc1 [KH1] ; assay system purified solubilized version of Type VII tmAC (sol.AC7) (Homo sapiens); pIC50 recorded at < 3.70

Further cases:
Bench note, purified solubilized version of Type VII tmAC (sol.AC7) (Homo sapiens): CC(Sc1nc2ccccc2[nH]1)C(=O)N/N=C/c1cc(Br)ccc1O (centres unmarked) [KH7] , pIC50 reads < 4.26

* * *

- Assayed System: Type II tmAC (tmAC in extracts) (Homo sapiens, UniProt Q08462)
- Construct: expressed in transfected cells
- Sequence (Q08462 whole entry): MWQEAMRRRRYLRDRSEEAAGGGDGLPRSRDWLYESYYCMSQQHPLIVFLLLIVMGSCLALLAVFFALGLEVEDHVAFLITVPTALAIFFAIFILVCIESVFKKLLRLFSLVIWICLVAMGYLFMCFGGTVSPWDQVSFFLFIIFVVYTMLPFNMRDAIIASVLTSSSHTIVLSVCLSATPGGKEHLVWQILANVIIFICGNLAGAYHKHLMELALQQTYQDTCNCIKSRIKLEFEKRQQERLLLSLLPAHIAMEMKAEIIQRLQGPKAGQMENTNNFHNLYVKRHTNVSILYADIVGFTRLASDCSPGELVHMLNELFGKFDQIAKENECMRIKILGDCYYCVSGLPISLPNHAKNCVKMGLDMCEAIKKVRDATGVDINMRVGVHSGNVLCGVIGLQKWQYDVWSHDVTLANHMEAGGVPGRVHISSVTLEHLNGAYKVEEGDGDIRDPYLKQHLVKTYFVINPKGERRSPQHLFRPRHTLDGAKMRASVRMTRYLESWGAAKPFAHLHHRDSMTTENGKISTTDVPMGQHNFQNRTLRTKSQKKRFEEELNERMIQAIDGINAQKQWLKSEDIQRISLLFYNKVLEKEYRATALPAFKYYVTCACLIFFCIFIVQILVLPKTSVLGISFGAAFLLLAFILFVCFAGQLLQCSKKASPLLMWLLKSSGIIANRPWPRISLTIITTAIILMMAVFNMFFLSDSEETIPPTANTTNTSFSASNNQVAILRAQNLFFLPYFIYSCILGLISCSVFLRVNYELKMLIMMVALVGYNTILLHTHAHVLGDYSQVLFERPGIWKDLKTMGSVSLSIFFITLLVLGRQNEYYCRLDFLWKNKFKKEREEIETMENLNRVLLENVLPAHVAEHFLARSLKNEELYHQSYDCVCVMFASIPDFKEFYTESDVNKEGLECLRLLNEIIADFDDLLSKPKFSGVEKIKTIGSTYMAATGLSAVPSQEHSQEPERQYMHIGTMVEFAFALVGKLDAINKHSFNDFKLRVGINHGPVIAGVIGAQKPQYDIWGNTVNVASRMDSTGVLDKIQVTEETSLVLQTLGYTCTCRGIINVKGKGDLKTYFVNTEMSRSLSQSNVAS
- Protocol Summary: in vitro cyclase activity in extracts of cells overexpressing Type II tmAC
- Assay type: biochemical
- Measurement Parameters: unit inferred
pIC50: −log10 of the molar value.
Endpoint Label: pIC50

For orientation, consider the following solved cases.
pIC50 recorded for this compound, COc1ccc(/C=C2\C(=O)N(c3nc(-c4ccc(Cl)cc4)cs3)N=C2c2ccccc2)cc1OC [KH2] , is < 4.00

The reported value for Cc1ccccc1N1C(=O)/C(=C/c2ccc(-c3ccc(Cl)c(Cl)c3)o2)C=C1c1ccccc1 [KH4] in terms of pIC50 is < 4.00

***
# pIC50 of Cc1ccc(C)c(N2C(=O)/C(=C/c3ccc(Cl)cc3)C=C2c2ccccc2)c1 [KH3] = < 4.00

* * *

- Assayed System: UniProt:Q96PN6
- Sequence (Q96PN6 whole entry, species assumed): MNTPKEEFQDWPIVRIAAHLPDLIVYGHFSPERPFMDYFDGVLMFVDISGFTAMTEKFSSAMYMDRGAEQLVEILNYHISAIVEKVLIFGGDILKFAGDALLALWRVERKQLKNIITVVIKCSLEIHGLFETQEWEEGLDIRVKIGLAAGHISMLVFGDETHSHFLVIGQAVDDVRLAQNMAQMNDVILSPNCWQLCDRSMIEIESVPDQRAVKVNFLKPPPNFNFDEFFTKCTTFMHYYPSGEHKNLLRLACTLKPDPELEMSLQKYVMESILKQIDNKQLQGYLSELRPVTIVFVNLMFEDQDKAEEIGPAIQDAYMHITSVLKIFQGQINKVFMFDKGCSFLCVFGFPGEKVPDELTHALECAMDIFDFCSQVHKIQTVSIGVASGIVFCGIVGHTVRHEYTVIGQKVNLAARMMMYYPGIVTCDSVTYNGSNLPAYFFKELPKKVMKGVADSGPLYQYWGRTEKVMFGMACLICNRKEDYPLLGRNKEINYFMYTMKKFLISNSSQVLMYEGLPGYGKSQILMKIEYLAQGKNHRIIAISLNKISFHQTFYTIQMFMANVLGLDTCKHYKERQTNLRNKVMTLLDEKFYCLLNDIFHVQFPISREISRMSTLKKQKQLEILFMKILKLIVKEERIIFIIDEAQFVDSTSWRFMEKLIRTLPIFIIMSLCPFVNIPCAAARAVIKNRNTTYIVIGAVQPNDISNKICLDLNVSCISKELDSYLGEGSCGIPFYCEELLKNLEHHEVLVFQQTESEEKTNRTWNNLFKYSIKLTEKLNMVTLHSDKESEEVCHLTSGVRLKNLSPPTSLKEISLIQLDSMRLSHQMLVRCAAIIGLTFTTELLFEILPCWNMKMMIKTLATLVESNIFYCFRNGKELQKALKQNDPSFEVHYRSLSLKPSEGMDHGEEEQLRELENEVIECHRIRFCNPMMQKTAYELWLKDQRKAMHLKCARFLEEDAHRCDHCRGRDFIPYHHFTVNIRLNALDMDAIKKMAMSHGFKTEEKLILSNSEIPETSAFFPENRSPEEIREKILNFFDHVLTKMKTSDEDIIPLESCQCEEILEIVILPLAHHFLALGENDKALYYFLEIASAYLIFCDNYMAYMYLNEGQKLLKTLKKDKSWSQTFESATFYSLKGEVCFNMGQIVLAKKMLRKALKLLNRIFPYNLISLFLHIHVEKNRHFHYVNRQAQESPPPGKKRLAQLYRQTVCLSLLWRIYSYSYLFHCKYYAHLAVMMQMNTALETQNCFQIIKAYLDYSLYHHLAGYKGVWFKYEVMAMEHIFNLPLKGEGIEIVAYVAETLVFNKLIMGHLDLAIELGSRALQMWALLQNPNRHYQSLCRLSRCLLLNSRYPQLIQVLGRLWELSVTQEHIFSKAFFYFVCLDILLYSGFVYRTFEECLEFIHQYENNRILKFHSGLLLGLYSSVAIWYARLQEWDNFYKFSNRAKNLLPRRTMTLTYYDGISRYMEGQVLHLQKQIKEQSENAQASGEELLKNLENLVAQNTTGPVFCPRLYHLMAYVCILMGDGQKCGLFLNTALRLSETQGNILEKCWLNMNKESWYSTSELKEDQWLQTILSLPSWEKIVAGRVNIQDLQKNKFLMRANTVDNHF
- Protocol Summary: cAMP forming activity inside cells stably overexpressing sAC
- Measurement Parameters: read-out: in vivo IC50 sAC (basal)
pIC50: −log10 of the molar value.
A collection of compounds and their measured pIC50

Before answering, review these 3 worked examples.
So, COc1ccc(Br)cc1/C=N/NC(=O)CSc1nc2ccccc2[nH]1 ? Its pIC50 was 4.52

Briefly, pIC50 measured for Cc1ccc(C)c(N2C(=O)/C(=C/c3ccc(Cl)cc3)C=C2c2ccccc2)c1 : < 3.30

The recorded pIC50 for entry CCCCOc1ccc(C2=N/C(=C\C(Br)=C\c3ccccc3)C(=O)O2)cc1 equals < 3.30

New cases:
Looking up O=C(CSc1nc2ccccc2[nH]1)N/N=C/c1cc(Br)ccc1O , I see its pIC50 listed as 4.52

get_value(item= COc1ccc(/C=C2\C(=O)N(c3nc(-c4ccc(Cl)cc4)cs3)N=C2c2ccccc2)cc1OC , readout=pIC50) returns < 3.30

// pIC50 lookup, compound = Cc1ccccc1N1C(=O)/C(=C/c2ccc(-c3ccc(Cl)c(Cl)c3)o2)C=C1c1ccccc1 , result: < 3.30
